Ref: ChEMBL document CHEMBL4011594

test: Aqueous solubility of the compound at pH 7; format: physicochemical
OBSERVATION_TYPE: solubility (µM)
Quick reminder: number only, in µM, skip the unit.

>  <STRUCTURE_STRING>
O=C1NC2(CCCC2)n2c1c1c(c(O)c2=O)C(=O)N(Cc2ccc(F)c(Cl)c2)CC1

>  <solubility [µM]>
10

$$$$
>  <STRUCTURE_STRING>
C[C@H](O)CN1C(=O)c2c3c(c(O)c(=O)n2[C@@]12CC[C@H]1C[C@H]12)C(=O)N(Cc1ccc(F)c(Cl)c1)CC3

>  <solubility [µM]>
98

$$$$

// next entry
I have this molecule here, O=C1N[C@@]2(CC[C@@H]3C[C@@H]32)n2c1c1c(c(O)c2=O)C(=O)N(Cc2ccc(F)c(Cl)c2)CC1 , and I need its recorded solubility. 32

###

test system: Human immunodeficiency virus 1; assay: Inhibition of wild-type HIV-1 integrase strand transfer activity assessed as reduction in viral replication in presence of 10% normal human serum
This section presents compounds with their documented IP values.
Hi! Could you send only the number? It should be in nM, unit omitted.

Lab note: need IP for Cc1ccc2c(c1)C1(CC2)NC(=O)c2c3c(c(O)c(=O)n21)C(=O)N(Cc1ccc(F)c(Cl)c1)CC3 (racemic) on Human immunodeficiency virus 1, anyone have it? 45

###

test: Aqueous solubility of the compound at pH 7; type: physicochemical
OBSERVATION_TYPE: solubility (µM)
Write the answer as a number in µM, unit excluded.

>  <MOLECULE>
COCC(O)CN1C(=O)c2c3c(c(O)c(=O)n2C12CCC1CC12)C(=O)N(Cc1ccc(F)c(Cl)c1)CC3 (centres undefined)

>  <solubility, µM>
123

$$$$
>  <MOLECULE>
CN1CCN(CCN2C(=O)c3c4c(c(O)c(=O)n3C23CCC2CC23)C(=O)N(Cc2ccc(F)c(Cl)c2)CC4)S1(=O)=O (centres undefined)

>  <solubility, µM>
12

$$$$

Quick one: solubility of COCCN1C(=O)c2c3c(c(O)c(=O)n2C12CCC1CC12)C(=O)N(Cc1ccc(F)c(Cl)c1)CC3 (centres undefined) ? 59

C[C@@H](O)CN1C(=O)c2c3c(c(O)c(=O)n2[C@@]12CC[C@H]1C[C@H]12)C(=O)N(Cc1ccc(F)c(Cl)c1)CC3 ? 63

###

solubility values by entry
experiment: Aqueous solubility of the compound at pH 2; format: physicochemical

>  <COMPOUND>
COC(C)(C)CCN1C(=O)c2c3c(c(O)c(=O)n2C12CCC1CC12)C(=O)N(Cc1ccc(F)c(Cl)c1)CC3 (centres undefined)

>  <solubility>
< 6 µM

$$$$
>  <COMPOUND>
CN1C(=O)c2c3c(c(O)c(=O)n2C12CCCCCC2)C(=O)N(Cc1ccc(F)c(Cl)c1)CC3

>  <solubility>
< 5 µM

$$$$
>  <COMPOUND>
Cc1ccc2c(c1)C1(CC2)NC(=O)c2c3c(c(O)c(=O)n21)C(=O)N(Cc1ccc(F)c(Cl)c1)CC3 (racemic)

>  <solubility>
< 2 µM

$$$$

Form field: reported solubility of C[C@H](O)CN1C(=O)c2c3c(c(O)c(=O)n2[C@@]12CC[C@H]1C[C@H]12)C(=O)N(Cc1ccc(F)c(Cl)c1)CC3 125 µM

Next: O=C1NC2(Cc3ccccc3C2)n2c1c1c(c(O)c2=O)C(=O)N(Cc2ccc(F)c(Cl)c2)CC1 < 3 µM

Try this compound next: O=C1NC2(CCc3ccccc32)n2c1c1c(c(O)c2=O)C(=O)N(Cc2ccc(F)c(Cl)c2)CC1 (racemic) < 2 µM

###

A collection of molecules and their measured solubility
assay: Aqueous solubility of the compound at pH 7; format: physicochemical

Solved cases (3 shown):
>  <MOLECULE>
COC(C)(C)CCN1C(=O)c2c3c(c(O)c(=O)n2C12CCC1CC12)C(=O)N(Cc1ccc(F)c(Cl)c1)CC3 (centres undefined)

>  <OBSERVATION_TYPE>
solubility

>  <OBSERVED_MEASUREMENT>
< 6 µM

$$$$
>  <MOLECULE>
O=C1NC(C2CCCC2)n2c1c1c(c(O)c2=O)C(=O)N(Cc2ccc(F)c(Cl)c2)CC1 (racemic)

>  <OBSERVATION_TYPE>
solubility

>  <OBSERVED_MEASUREMENT>
< 5 µM

$$$$
>  <MOLECULE>
O=C1c2c(c3n(c(=O)c2O)C2(CCC4CC42)N(CCN2CCCS2(=O)=O)C3=O)CCN1Cc1ccc(F)c(Cl)c1 (centres undefined)

>  <OBSERVATION_TYPE>
solubility

>  <OBSERVED_MEASUREMENT>
< 4 µM

$$$$

Look at this molecule and give its reported solubility. O=C1c2c(c3n(c(=O)c2O)C2(CCC4CC42)N(CCN2C(=O)c4ccccc4C2=O)C3=O)CCN1Cc1ccc(F)c(Cl)c1 (centres undefined) < 2 µM

###

system: Human immunodeficiency virus 1; assay: Inhibition of wild-type HIV-1 integrase strand transfer activity assessed as reduction in viral replication in presence of 10% normal human serum
OBSERVATION_TYPE: IP (nM)
Hi! Could you send only the number? It should be in nM, unit omitted.

In the examples that follow, each entry is paired with its recorded IP.
>  <COMPOUND>
O=C1N[C@@]2(CC[C@@H]3C[C@@H]32)n2c1c1c(c(O)c2=O)C(=O)N(Cc2ccc(F)c(Cl)c2)CC1

>  <OBSERVED_MEASUREMENT>
16

$$$$
>  <COMPOUND>
COc1nccc2c1C1(CC2)NC(=O)c2c3c(c(O)c(=O)n21)C(=O)N(Cc1ccc(F)c(Cl)c1)CC3 (racemic)

>  <OBSERVED_MEASUREMENT>
493

$$$$
>  <COMPOUND>
O=C1c2c(c3n(c(=O)c2O)C2(CCC4CC42)N(CC2CCOCC2)C3=O)CCN1Cc1ccc(F)c(Cl)c1 (racemic)

>  <OBSERVED_MEASUREMENT>
31

$$$$
>  <COMPOUND>
CN(CCN1C(=O)c2c3c(c(O)c(=O)n2C12CCC1CC12)C(=O)N(Cc1ccc(F)c(Cl)c1)CC3)S(C)(=O)=O (stereo not drawn)

>  <OBSERVED_MEASUREMENT>
19

$$$$
>  <COMPOUND>
COc1cccc2c1[C@]1(CC2)NC(=O)c2c3c(c(O)c(=O)n21)C(=O)N(Cc1ccc(F)c(Cl)c1)CC3

>  <OBSERVED_MEASUREMENT>
4

$$$$
>  <COMPOUND>
Cc1cccc2c1CCC21NC(=O)c2c3c(c(O)c(=O)n21)C(=O)N(Cc1ccc(F)c(Cl)c1)CC3 (racemic)

>  <OBSERVED_MEASUREMENT>
140

$$$$
>  <COMPOUND>
O=C1CC[C@@H](CN2C(=O)c3c4c(c(O)c(=O)n3C23CCC2CC23)C(=O)N(Cc2ccc(F)c(Cl)c2)CC4)N1 (stereo partly drawn)

>  <OBSERVED_MEASUREMENT>
40

$$$$
>  <COMPOUND>
CCC(O)CN1C(=O)c2c3c(c(O)c(=O)n2C12CCC1CC12)C(=O)N(Cc1ccc(F)c(Cl)c1)CC3 (stereo not drawn)

>  <OBSERVED_MEASUREMENT>
15

$$$$
>  <COMPOUND>
Cc1ccc2c(c1)CCC21NC(=O)c2c3c(c(O)c(=O)n21)C(=O)N(Cc1ccc(F)c(Cl)c1)CC3 (racemic)

>  <OBSERVED_MEASUREMENT>
59

$$$$
>  <COMPOUND>
CN1CCN(CCN2C(=O)c3c4c(c(O)c(=O)n3C23CCC2CC23)C(=O)N(Cc2ccc(F)c(Cl)c2)CC4)S1(=O)=O (stereo not drawn)

>  <OBSERVED_MEASUREMENT>
13

$$$$

Now for a further compound.
# value lookup — system Human immunodeficiency virus 1, readout IP, item O=C1c2c(c3n(c(=O)c2O)C2(CCC4CC42)N(CCN2C(=O)CCC2=O)C3=O)CCN1Cc1ccc(F)c(Cl)c1 (stereo not drawn) 7

###

assay: Aqueous solubility of the compound at pH 2; assay type: physicochemical
OBSERVATION_TYPE: solubility

>  <MOLECULE>
CC1CCC2(C1)NC(=O)c1c3c(c(O)c(=O)n12)C(=O)N(Cc1ccc(F)c(Cl)c1)CC3 (racemic)

>  <solubility>
< 5 µM

$$$$
>  <MOLECULE>
O=C1c2c(c3n(c(=O)c2O)C2(CCC4CC42)N(CCN2C(=O)CCC2=O)C3=O)CCN1Cc1ccc(F)c(Cl)c1 (stereo not drawn)

>  <solubility>
89 µM

$$$$

Pending molecule:
Reported solubility for CN1C(=O)c2c3c(c(O)c(=O)n2C12CCC2)C(=O)N(Cc1ccc(F)c(Cl)c1)CC3 : what is it? < 5 µM

###

system: Human immunodeficiency virus 1; experiment: Inhibition of wild-type HIV-1 integrase strand transfer activity assessed as reduction in viral replication in presence of 10% normal human serum
OBSERVATION_TYPE: IP
Remember to quote the unit after the number.

>  <COMPOUND>
C[C@@H](O)CN1C(=O)c2c3c(c(O)c(=O)n2[C@@]12CC[C@H]1C[C@H]12)C(=O)N(Cc1ccc(F)c(Cl)c1)CC3

>  <OBSERVED_MEASUREMENT>
7 nM

$$$$
>  <COMPOUND>
O=C1c2c(c3n(c(=O)c2O)C2(CCC4CC42)N(CCN2CCCS2(=O)=O)C3=O)CCN1Cc1ccc(F)c(Cl)c1 (configuration not stated)

>  <OBSERVED_MEASUREMENT>
17 nM

$$$$
>  <COMPOUND>
O=C1c2c(c3n(c(=O)c2O)C2(CCC4CC42)N(CCN2C(=O)c4ccccc4C2=O)C3=O)CCN1Cc1ccc(F)c(Cl)c1 (configuration not stated)

>  <OBSERVED_MEASUREMENT>
80 nM

$$$$
>  <COMPOUND>
CN1C(=O)c2c3c(c(O)c(=O)n2C12CCC2)C(=O)N(Cc1ccc(F)c(Cl)c1)CC3

>  <OBSERVED_MEASUREMENT>
210 nM

$$$$
>  <COMPOUND>
CN1C(=O)c2c3c(c(O)c(=O)n2C12CCCCCC2)C(=O)N(Cc1ccc(F)c(Cl)c1)CC3

>  <OBSERVED_MEASUREMENT>
1100 nM

$$$$

Endpoint output: IP of O=C1N[C@]2(CC[C@H]3C[C@H]32)n2c1c1c(c(O)c2=O)C(=O)N(Cc2ccc(F)c(Cl)c2)CC1 . Value? 30 nM

CO[C@@H](C)CN1C(=O)c2c3c(c(O)c(=O)n2C12CCC1CC12)C(=O)N(Cc1ccc(F)c(Cl)c1)CC3 (some centres not stated) ? 28 nM

Next record, please: COC(C)(C)CCN1C(=O)c2c3c(c(O)c(=O)n2C12CCC1CC12)C(=O)N(Cc1ccc(F)c(Cl)c1)CC3 (configuration not stated) 45 nM

Param item: CN1CC(=O)N(CCN2C(=O)c3c4c(c(O)c(=O)n3C23CCC2CC23)C(=O)N(Cc2ccc(F)c(Cl)c2)CC4)C1=O (configuration not stated) 8 nM

Same lookup for COc1ccnc2c1C1(CC2)NC(=O)c2c3c(c(O)c(=O)n21)C(=O)N(Cc1ccc(F)c(Cl)c1)CC3 (racemic) , please. 13 nM

Please do the same for C[C@H](O)CN1C(=O)c2c3c(c(O)c(=O)n2[C@@]12CC[C@H]1C[C@H]12)C(=O)N(Cc1ccc(F)c(Cl)c1)CC3 as well. 8 nM

Now the compound COCCN1C(=O)c2c3c(c(O)c(=O)n2C12CCC1CC12)C(=O)N(Cc1ccc(F)c(Cl)c1)CC3 (configuration not stated) 33 nM
